Test system: wheat
Assay: Test B pre/postemergence wheat
Format: in vivo, Triticum aestivum
Conditions: Postemergence, Rate 500 g/ha; scale of 0 to 10 where 0 is no effect and 10 is complete control
The following compounds are listed with their measured Wheat plant response rating values.
// response body must contain only the number

CC(C)N(C(=O)n1oc(=O)n(CC#N)c1=O)c1ccc(F)cc1 [Compound 395]
3
CC(C)N(C(=O)n1oc(=O)n(C(C)C#N)c1=O)c1ccccc1 (stereo not shown) [Compound 435]
0
CC(C)N(C(=O)n1oc(=O)n(CCC#N)c1=O)c1ccc(Cl)cc1 [Compound 444]
0

Item: CCc1nc(C)c(C(C)n2c(=O)on(C(=O)N(c3ccc(F)cc3)C(C)C)c2=O)s1 (stereo not shown) [Compound 449] | Wheat plant response rating: 3

----------
The following molecules are listed with their measured Redroot pigweed plant response rating (0 to 10 scale) values.
Test system: pigweed
Assay: Test B pre/postemergence pigweed
Type: in vivo, Amaranthus retroflexus
Settings: Preemergence, Rate 250 g/ha
// response body must contain only the number

Study these solved cases before continuing.
C=CCCCn1c(=O)on(C(=O)N(c2ccccc2)C(C)C)c1=O
10
CCC(=O)Cn1c(=O)on(C(=O)N(c2ccc(F)cc2F)C(C)C)c1=O
8
CC(C)N(C(=O)n1oc(=O)n(CC2CCC2)c1=O)c1ccc(Cl)cc1
9

Item: CC(C)N(C(=O)n1oc(=O)n(CCc2ccccc2)c1=O)c1ccccc1 | Redroot pigweed plant response rating (0 to 10 scale): 8

----------
The following molecules are listed with their measured Redroot pigweed plant response rating values.
Test system: pigweed
Assay: Test B pre/postemergence pigweed
Format: in vivo, Amaranthus retroflexus
Conditions: Rate 500 g/ha, Postemergence; scale 0 to 10, 0 no effect, 10 complete control
// response body must contain only the number

Study these solved cases before continuing.
CCN(Cc1ccccc1)C(=O)n1oc(=O)n(-c2ccccc2C)c1=O
0
CC(C)N(C(=O)n1oc(=O)n(C(C)C)c1=O)c1ccccc1
7
Cc1nc(C)c(Cn2c(=O)on(C(=O)N(c3ccc(F)cc3F)C(C)C)c2=O)s1
4

Query molecule follows.
Item: CC1Cc2cccc(-n3c(=O)on(C(=O)N(c4ccc(F)cc4)C(C)C)c3=O)c2O1 (stereo not shown) | Redroot pigweed plant response rating: 6

----------
Test system: blackgrass
Assay: Test B pre/postemergence blackgrass
Assay type: in vivo, Alopecurus myosuroides
Settings: Preemergence, Rate 500 g/ha; scale of 0 to 10 where 0 is no effect and 10 is complete control
The following compounds are listed with their measured Blackgrass plant response rating values.
// response body must contain only the number

Study these solved cases before continuing.
CC(C)N(C(=O)n1oc(=O)n(CC2CCC2)c1=O)c1ccc(Cl)cc1
9
CC(C)N(C(=O)n1oc(=O)n(CC2CCCO2)c1=O)c1ccc(F)cc1 (centres unmarked)
10
C=CCCCn1c(=O)on(C(=O)N(c2ccccc2)C(C)C)c1=O
2
CC(C)N(C(=O)n1oc(=O)n(CC2CC2)c1=O)c1ccc(F)cc1F
10
CCOC(=O)C(C)N(C(=O)n1oc(=O)n(C)c1=O)c1ccc(F)cc1 (centres unmarked)
0

Item: CC(C)N(C(=O)n1oc(=O)n(Cc2ccccc2-c2ccccc2)c1=O)c1ccc(F)cc1 | Blackgrass plant response rating: 0

Item: CC(C)N(C(=O)n1oc(=O)n(C2CC3CCC2C3)c1=O)c1ccc(F)cc1 (centres unmarked) | Blackgrass plant response rating: 7

Item: COC(C)n1c(=O)on(C(=O)N(c2ccc(F)cc2F)C(C)C)c1=O (centres unmarked) | Blackgrass plant response rating: 0

Origin of values: patent US6737383B1
